pKd values for Receptor-type tyrosine-protein kinase FLT3 (Homo sapiens, UniProt P36888) compiled from several publications are listed below.
pKd: −log10 of the molar value.

Here is how some compounds turned out for pKd.
stdin: Lab note: need pKd for Nc1ccc(-c2ccc(CC(=O)Nc3cc(C4(C(F)(F)F)CC4)on3)cc2)cn1 on Receptor-type tyrosine-protein kinase FLT3 (Homo sapiens, UniProt P36888), anyone have it?
stdout: ≥ 9.00

stdin: // map CC(C)(C)c1cc(NC(=O)Nc2ccc(-c3ccc(NCCN4CCOCC4)nc3)cc2)no1 to recorded pKd (system: Receptor-type tyrosine-protein kinase FLT3 (Homo sapiens, UniProt P36888))
stdout: ≥ 9.00

stdin: Kindly state the measured pKd obtained for CC(F)(F)C1(c2cc(NC(=O)Cc3ccc(-c4ccc(N)nc4)cc3)no2)CC1 with Receptor-type tyrosine-protein kinase FLT3 (Homo sapiens, UniProt P36888).
stdout: ≥ 9.00

stdin: Could you share what pKd was measured for Cc1cc(N)ncc1-c1ccc(NC(=O)Nc2cc(C(C)(C)C)on2)nc1 , tested on Receptor-type tyrosine-protein kinase FLT3 (Homo sapiens, UniProt P36888)?
stdout: ≥ 9.00

stdin: Query for Receptor-type tyrosine-protein kinase FLT3 (Homo sapiens, UniProt P36888): what pKd does the record show for COc1cc2c(Nc3cc(C)[nH]n3)nc(N3CCC3)nc2cc1OCCCN1CCCC1 ?
stdout: 5.00 to 5.30

New cases:
stdin: GET /values?readout=pKd&system=Receptor-type tyrosine-protein kinase FLT3 (Homo sapiens, UniProt P36888)&item= CC1(c2cc(NC(=O)Cc3ccc(-c4cnc(N)cc4F)cc3)no2)CC1
stdout: ≥ 9.00

stdin: Param readout = pKd; param system = Receptor-type tyrosine-protein kinase FLT3 (Homo sapiens, UniProt P36888); param query = CC(C)(C)c1cc(NC(=O)C(O)c2ccc(-c3ccc(N)nc3)cc2)no1 (centres unmarked) ; response: value
stdout: 8.00 to 9.00

stdin: Record lookup: for Receptor-type tyrosine-protein kinase FLT3 (Homo sapiens, UniProt P36888), what pKd belongs to Cn1cc(-c2cc(-c3ccc(CC(=O)Nc4cc(C(C)(C)C)on4)cc3)cnc2N)cn1 ?
stdout: ≥ 9.00

stdin: Provide value of pKd for this record tested with Receptor-type tyrosine-protein kinase FLT3 (Homo sapiens, UniProt P36888): CS(=O)(=O)O.Cc1cc(-c2ccc(CC(=O)Nc3cc(C4(C(F)(F)F)CC4)on3)cc2)cnc1N
stdout: ≥ 9.00

stdin: Form entry - test system: Receptor-type tyrosine-protein kinase FLT3 (Homo sapiens, UniProt P36888); read-out: pKd; compound: COc1ccc(-c2cc3c(Sc4ccc(C)cc4)ncnc3n2C)cc1
stdout: 6.00 to 7.00

stdin: Checklist item: pKd tested on Receptor-type tyrosine-protein kinase FLT3 (Homo sapiens, UniProt P36888), entry CC(C)(C)c1cc(NC(=O)Cc2ccc(-c3ccc(N)nc3)cn2)no1 , value?
stdout: ≥ 9.00
